# assayed.target: SMARCA2 (Homo sapiens, UniProt P51531)
# Sequence (P51531 whole entry): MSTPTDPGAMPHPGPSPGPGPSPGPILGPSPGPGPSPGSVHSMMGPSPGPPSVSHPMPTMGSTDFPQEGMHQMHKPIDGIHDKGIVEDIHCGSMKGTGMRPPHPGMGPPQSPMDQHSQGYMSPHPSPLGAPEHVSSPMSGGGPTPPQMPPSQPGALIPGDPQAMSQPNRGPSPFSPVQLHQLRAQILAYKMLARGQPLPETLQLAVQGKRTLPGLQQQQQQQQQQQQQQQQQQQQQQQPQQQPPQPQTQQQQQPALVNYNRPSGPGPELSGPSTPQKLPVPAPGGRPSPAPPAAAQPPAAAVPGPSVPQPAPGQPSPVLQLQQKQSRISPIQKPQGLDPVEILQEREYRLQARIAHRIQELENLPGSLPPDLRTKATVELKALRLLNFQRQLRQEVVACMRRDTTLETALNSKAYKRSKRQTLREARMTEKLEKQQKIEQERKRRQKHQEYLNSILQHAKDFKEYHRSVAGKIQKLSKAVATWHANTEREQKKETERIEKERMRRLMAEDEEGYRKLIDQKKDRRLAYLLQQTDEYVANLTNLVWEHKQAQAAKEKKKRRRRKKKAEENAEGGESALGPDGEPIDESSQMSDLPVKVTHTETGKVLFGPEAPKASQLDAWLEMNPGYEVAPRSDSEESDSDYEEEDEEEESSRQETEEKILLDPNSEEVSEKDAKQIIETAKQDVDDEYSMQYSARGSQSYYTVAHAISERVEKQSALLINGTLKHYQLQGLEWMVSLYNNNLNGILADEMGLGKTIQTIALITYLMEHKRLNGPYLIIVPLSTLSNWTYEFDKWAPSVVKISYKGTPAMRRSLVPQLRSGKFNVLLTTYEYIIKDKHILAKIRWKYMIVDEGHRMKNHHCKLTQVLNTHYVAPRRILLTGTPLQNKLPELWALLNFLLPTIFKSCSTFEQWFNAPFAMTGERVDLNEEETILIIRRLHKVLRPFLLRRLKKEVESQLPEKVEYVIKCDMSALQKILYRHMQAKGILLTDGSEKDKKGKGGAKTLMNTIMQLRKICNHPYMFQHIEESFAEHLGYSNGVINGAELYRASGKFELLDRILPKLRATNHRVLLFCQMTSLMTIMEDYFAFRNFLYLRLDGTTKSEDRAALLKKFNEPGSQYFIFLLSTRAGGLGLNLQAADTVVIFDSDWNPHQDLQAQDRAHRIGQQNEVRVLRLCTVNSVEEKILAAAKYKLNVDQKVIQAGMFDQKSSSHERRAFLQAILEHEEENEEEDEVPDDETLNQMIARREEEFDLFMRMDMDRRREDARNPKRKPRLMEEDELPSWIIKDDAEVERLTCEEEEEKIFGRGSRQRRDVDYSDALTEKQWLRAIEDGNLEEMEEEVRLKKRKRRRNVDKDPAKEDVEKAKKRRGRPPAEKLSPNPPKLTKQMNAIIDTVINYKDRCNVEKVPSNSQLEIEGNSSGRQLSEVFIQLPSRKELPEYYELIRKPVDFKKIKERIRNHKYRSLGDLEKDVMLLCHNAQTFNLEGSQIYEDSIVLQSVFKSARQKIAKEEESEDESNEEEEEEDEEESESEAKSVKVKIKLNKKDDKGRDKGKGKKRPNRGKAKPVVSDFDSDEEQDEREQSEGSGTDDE
# experimental.details: SMARCA2 Western blot degradation in MV4-11 cells
# Format: cell-based
# Set-up: SMARCA2/SMARCA4 protein degradation selectivity in MV4-11 cells; endogenous in cells; host or cells: MV4-11
# assay.conditions: MV4-11 cells, 24 h; read-out: SMARCA2 MSD MV411 degradation 24 h: Mean external-Abs DC50
measured.endpoint: DC50

C#Cc1ccc(CNC(=O)[C@@H]2C[C@@H](O)CN2C(=O)[C@@H](NC(=O)N2CC3(CC(N4CCC(c5cnc(N6CCc7[nH]c8nnc(-c9ccccc9O)cc8c7[C@H]6C)nc5)CC4)C3)C2)C(C)(C)C)cc1 (single isomer, unassigned) [I-73] :: 1 to 10 nM
C#Cc1ccc(CNC(=O)[C@@H]2C[C@@H](O)CN2C(=O)[C@@H](NC(=O)N2CC3(CC(CCN4CCC(c5cnc(N6CCc7[nH]c8nnc(-c9ccccc9O)cc8c7[C@H]6C)nc5)CC4)C3)C2)C(C)(C)C)cc1 [I-416] :: 1 to 10 nM
C#Cc1ccc(CNC(=O)[C@@H]2C[C@@H](O)CN2C(=O)[C@@H](NC(=O)N2CC3(CC(N4CCC(N5CC6(CC(N7CCc8[nH]c9nnc(-c%10ccccc%10O)cc9c8[C@H]7C)C6)C5)CC4)C3)C2)C(C)(C)C)cc1 [I-207] :: 1 to 10 nM
C#Cc1ccc(CNC(=O)[C@@H]2C[C@@H](O)CN2C(=O)[C@@H](NC(=O)N2CC3(CC(N4CCC(N5CCC(N6CCc7[nH]c8nnc(-c9ccccc9O)cc8c7[C@H]6C)CC5)CC4)C3)C2)C(C)(C)C)cc1 (single isomer, unassigned) [I-179] :: 10 to 100 nM
C#Cc1ccc(CNC(=O)[C@@H]2C[C@@H](O)CN2C(=O)[C@@H](NC(=O)N2CC3(CC(N4CCC(N5CCC(N6CCc7[nH]c8nnc(-c9ccccc9O)cc8c7[C@H]6C)CC5)CC4)C3)C2)C(C)(C)C)c(F)c1 [I-181] :: 10 to 100 nM

Query: State its DC50: C#Cc1ccc(CNC(=O)[C@@H]2C[C@@H](O)CN2C(=O)[C@@H](NC(=O)[C@H]2CCC3(CC2)C[C@H](N2CCC(N(C)CCN4CCN5c6cc(-c7ccccc7O)nnc6NC[C@H]5C4)CC2)C3)C(C)(C)C)cc1 (single isomer, unassigned) [I-247]
Reply: 1 to 10 nM

Query: Give the measured DC50 for C#Cc1ccc(CNC(=O)[C@@H]2C[C@@H](O)CN2C(=O)[C@@H](NC(=O)N2CCCC(N3CCC(c4cnc(N5CCN6c7cc(-c8ccccc8O)nnc7NC[C@H]6C5)nc4)CC3)C2)C(C)(C)C)cc1 (mixture of isomers) [I-245]
Reply: 10 to 100 nM

These measurements were taken from patent US20250170248A1.
